# ASSAY PROCEDURE: Cytotoxicity against human HepG2 cells assessed as inhibition of cell growth incubated for 24 hrs by MTT assay
# Assay type: toxicity, cell-based

# COMPOUND, IC50 at 24 h
rows = [
    ("CCCCCCN(CCCc1ccccc1)Cc1cccc(OC)c1OCc1ccccc1", "106 µM"),
    ("COc1cccc(CN(CCCc2ccccc2F)C2CCCC2)c1OCc1ccccc1", "28 µM"),
    ("CCCN(CCCc1ccccc1F)Cc1cccc(OC)c1OCc1ccccc1", "33 µM"),
    ("CCCN(CCCc1ccccc1)Cc1cccc(OC)c1OCc1ccccc1", "48 µM"),
]
